src = patent US7759345B2

observed-property: Toxicity Data Liver
The response must contain the number and no unit.

Result for C=COC(=O)Oc1c(C)c2c(c3c1[C@H]1SC[C@]4(NCCc5cc(OC(=O)OC(C)(C)C)c(OC)cc54)C(=O)OC[C@@H]3N3C1[C@H]1c4c(cc(C)c(OC)c4O)C[C@@H]([C@@H]3O)N1C)OCO2 (some centres unmarked) , tested on Liver, Toxicity Data Liver: 2.95E-08

The compound COc1cc2c(cc1OC)[C@@]1(CS[C@@H]3c4c(OC(C)=O)c(C)c5c(c4[C@H](COC1=O)N1C3[C@H]3c4c(cc(C)c(OC)c4OC)C[C@@H]([C@@H]1O)N3C)OCO5)NCC2 (some centres unmarked) , tested on Liver, showed Toxicity Data Liver of 6.18E-08

The compound COc1cc2c(cc1O)CCN[C@]21CS[C@@H]2c3c(OC)c(C)c4c(c3[C@H](COC1=O)N1C2[C@H]2c3c(cc(C)c(OC)c3O)C[C@@H]([C@@H]1O)N2C)OCO4 (some centres unmarked) , when measured on Liver, yielded Toxicity Data Liver of 3.98E-09

Short answer on Liver for COc1cc2c(cc1OC)[C@@]1(CS[C@@H]3c4c(OC(C)=O)c(C)c5c(c4[C@H](COC1=O)N1C3[C@H]3c4c(cc(C)c(OC)c4O)C[C@@H]([C@@H]1O)N3C)OCO5)NCC2 (some centres unmarked) , Toxicity Data Liver: 3.20E-08

Tested system Liver; Toxicity Data Liver recorded for COc1cc2c(cc1OC(=O)CCc1ccccc1)CCN[C@]21CS[C@@H]2c3c(OC(C)=O)c(C)c4c(c3[C@H](COC1=O)N1C2[C@H]2c3c(cc(C)c(OC)c3O)C[C@@H]([C@@H]1O)N2C)OCO4 (some centres unmarked) was 1.55E-08
